Each entry below lists one item and its recorded IC50 value.
- System: P388 mouse leukemia cell line
- condition-summary: 2 h
Where a SMILES comes first, the peptide text is derived from it. [ ]: non-standard residue; d: D form. The star is where a group is joined. NHCH2CH2OH = OCCN*; For = O=C*

Below, 2 molecules whose answers are already recorded.
# molecule, IC50
data = [
    ("CNC(=O)C[C@@H](NC(=O)[C@@H](NC(=O)[C@@H](CC(C)C)NC(=O)[C@H](C)NC(=O)[C@@H](CC(C)C)NC(=O)[C@H](C)NC(=O)CNC(=O)[C@@H](NC=O)C(C)C)C(C)C)C(=O)N[C@@H](Cc1c[nH]c2ccccc12)C(=O)N[C@H](CC(C)C)C(=O)N[C@@H](Cc1c[nH]c2ccccc12)C(=O)N[C@H](CC(C)C)C(=O)N[C@@H](Cc1c[nH]c2ccccc12)C(=O)N[C@@H](C(=O)N[C@@H](Cc1c[nH]c2ccccc12)C(=O)NCCO)[C@H](C)O [B22] (For-VGA[dL]A[dL]V[dD](NHMe)W[dL]W[dL]W[dT]W-NHCH2CH2OH)", "> 1000 nM"),
    ("CC(C)C[C@@H](NC(=O)[C@H](C)NC(=O)CNC(=O)[C@@H](NC=O)C(C)C)C(=O)N[C@@H](C)C(=O)N[C@@H](C(=O)N[C@H](C(=O)N[C@@H](C(=O)N[C@@H](Cc1c[nH]c2ccccc12)C(=O)N[C@H](CC(C)C)C(=O)N[C@@H](Cc1c[nH]c2ccccc12)C(=O)N[C@H](CC(C)C)C(=O)N[C@@H](Cc1c[nH]c2ccccc12)C(=O)N[C@H](CC(C)C)C(=O)N[C@@H](Cc1c[nH]c2ccccc12)C(=O)NCCO)[C@H](C)O)C(C)C)C(C)C [B13] (For-VGA[dL]A[dV]V[dT]W[dL]W[dL]W[dL]W-NHCH2CH2OH)", "> 1000 nM"),
]

Now for the molecule whose IC50 we want.
Notebook: CC(C)C[C@@H](NC(=O)[C@H](C)NC(=O)[C@H](NC(=O)[C@H](C)NC(=O)CNC(=O)[C@@H](NC=O)C(C)C)[C@H](C)O)C(=O)N[C@H](C(=O)N[C@H](CC(C)C)C(=O)N[C@@H](Cc1c[nH]c2ccccc12)C(=O)N[C@@H](C(=O)N[C@@H](Cc1c[nH]c2ccccc12)C(=O)N[C@H](CC(C)C)C(=O)N[C@@H](Cc1c[nH]c2ccccc12)C(=O)N[C@@H](C(=O)N[C@@H](Cc1c[nH]c2ccccc12)C(=O)NCCO)C(C)C)[C@H](C)O)C(C)C [B21] (For-VGA[dT]A[dL]V[dL]W[dT]W[dL]W[dV]W-NHCH2CH2OH) , IC50 read as > 1000 nM
